- Tgt: FCoV N (Feline infectious peritonitis virus (strain 79-1146))
- Sequence (P25909 whole entry): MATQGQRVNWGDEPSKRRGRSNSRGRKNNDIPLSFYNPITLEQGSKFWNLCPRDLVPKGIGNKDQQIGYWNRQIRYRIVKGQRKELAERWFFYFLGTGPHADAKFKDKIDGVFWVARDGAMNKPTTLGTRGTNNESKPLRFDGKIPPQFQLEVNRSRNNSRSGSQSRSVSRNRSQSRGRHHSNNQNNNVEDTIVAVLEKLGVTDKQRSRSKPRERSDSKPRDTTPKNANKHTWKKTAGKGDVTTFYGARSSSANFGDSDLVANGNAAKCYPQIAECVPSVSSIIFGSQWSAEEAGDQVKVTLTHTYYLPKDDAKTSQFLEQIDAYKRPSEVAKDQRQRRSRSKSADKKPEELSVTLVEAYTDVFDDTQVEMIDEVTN
- Assay info: biolayer interferometry, inhibition of N binding to immobilized biotinylated vRNA […]' NCR
Observable: IC50

{"Compound": "O=C(O)c1cccc2c1NC(c1cccc(Br)c1)C1CC=CC21 (stereo not shown) [K31]", "Assay value": "~850 nM"}
